SYSTEM_TESTED: Neu5Ac(a2-3)Gal(b1-3)GlcNAc(b1-2)Man(a1-3)[GlcNAc(b1-4)][Neu5Ac(a2-3)Gal(b1-3)GlcNAc(b1-2)Man(a1-6)]Man(b1-4)GlcNAc(b1-4)GlcNAc
TEST_PROTOCOL: glycan array binding signal (z-score within array); higher = stronger binding
SETTINGS: glycan notation: IUPAC condensed, linker removed
Many of the other results were omitted from the sample, so the strongest signals are more common in it than they were.
MEASUREMENT_TYPE: glycan array binding signal (z-score)
Answers are plain numbers.

Query: Tell me the measured glycan array binding signal (z-score) of AT3G09350(27) (Arabidopsis thaliana), Q84J81 (protein) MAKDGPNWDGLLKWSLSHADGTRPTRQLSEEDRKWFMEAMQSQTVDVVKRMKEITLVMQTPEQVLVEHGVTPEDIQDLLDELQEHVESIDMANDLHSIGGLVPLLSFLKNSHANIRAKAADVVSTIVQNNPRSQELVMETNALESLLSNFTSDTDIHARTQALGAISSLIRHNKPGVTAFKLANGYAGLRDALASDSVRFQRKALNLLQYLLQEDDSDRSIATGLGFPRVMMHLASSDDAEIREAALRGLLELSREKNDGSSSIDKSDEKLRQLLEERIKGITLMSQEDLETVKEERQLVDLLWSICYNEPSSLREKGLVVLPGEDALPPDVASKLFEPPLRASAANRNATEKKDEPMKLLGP , please.
Response: -0.8

Consider the record given below.
Query: I would be grateful if you could share the reported glycan array binding signal (z-score) for Arath Fbox LD (Arabidopsis thaliana) (protein) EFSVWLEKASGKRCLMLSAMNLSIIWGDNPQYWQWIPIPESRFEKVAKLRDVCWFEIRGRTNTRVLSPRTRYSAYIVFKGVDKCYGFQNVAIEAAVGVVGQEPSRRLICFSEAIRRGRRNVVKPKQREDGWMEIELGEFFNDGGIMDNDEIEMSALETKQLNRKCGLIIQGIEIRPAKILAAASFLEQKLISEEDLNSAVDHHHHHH .
Response: -0.462

Data provenance: the supplement of paper PMC8728848
